Just for reference, ChEMBL document CHEMBL4385605 is where these values come from.

Target: Sigma intracellular receptor 2 (Rattus norvegicus, UniProt Q5U3Y7)
Sequence (Q5U3Y7 whole entry): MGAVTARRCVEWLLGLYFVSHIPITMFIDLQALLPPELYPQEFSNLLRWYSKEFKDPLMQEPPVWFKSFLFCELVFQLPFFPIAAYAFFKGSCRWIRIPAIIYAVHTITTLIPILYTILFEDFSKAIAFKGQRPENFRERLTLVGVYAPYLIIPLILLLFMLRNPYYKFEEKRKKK
Experiment: Displacement of [3H]-di-o-tolylguanidine from sigma2 receptor in rat liver membranes incubated for 120 mins in the presence of sigma1 receptor ligand (+)-pentazocine by scintillation counting method
pKi: −log10 of the molar value.
Please enter Y where pKi is greater than or equal to 7, and N where it is lower.

Some solved entries appear below for comparison.
compound | label.value
COC1O[C@]2(CC[C@@H](NCc3ccccc3)CC2)c2ccccc21 (stereo partly specified) | N
c1ccc(CN[C@H]2CC[C@]3(CC2)OCCc2ccccc23)cc1 | N
COC1Cc2ccccc2[C@]2(CC[C@@H](NCc3ccccc3)CC2)O1 (stereo partly specified) | N

Please find the next compound below.
QUERY: Answer whether pKi of COC1Cc2ccccc2[C@]2(CC[C@H](N(C)CC3CCCCC3)CC2)O1 (stereo partly specified) is greater than or equal to 7.
RESULT: Y
